B1: glmS ribozyme (parent)
chain: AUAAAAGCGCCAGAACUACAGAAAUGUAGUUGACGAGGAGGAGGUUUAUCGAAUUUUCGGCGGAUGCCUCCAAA

Variants of: B1
Assay: self-cleavage kobs at 640 uM GlcN6P; higher = faster cleavage; RNA array
Settings: with glucosamine-6-phosphate
This sample holds only a part of the variants without activity.
QUANTITY KIND: self-cleavage kobs at 640 uM GlcN6P

Exercise: State the recorded self-cleavage kobs at 640 uM GlcN6P for this entry: A39C G63C
Solution: < 1e-05 s⁻¹

Exercise: State the recorded self-cleavage kobs at 640 uM GlcN6P for this entry: A6C G40A A52G C67U
Solution: < 1e-05 s⁻¹

Exercise: State the recorded self-cleavage kobs at 640 uM GlcN6P for this entry: C8G G37U G51U
Solution: < 1e-05 s⁻¹

Exercise: State the recorded self-cleavage kobs at 640 uM GlcN6P for this entry: A12C G35C
Solution: < 1e-05 s⁻¹

Exercise: State the recorded self-cleavage kobs at 640 uM GlcN6P for this entry: G9C U56A
Solution: < 1e-05 s⁻¹

Exercise: State the recorded self-cleavage kobs at 640 uM GlcN6P for this entry: G35A C50A
Solution: < 1e-05 s⁻¹

Exercise: State the recorded self-cleavage kobs at 640 uM GlcN6P for this entry: C16U G51C
Solution: < 1e-05 s⁻¹

Exercise: State the recorded self-cleavage kobs at 640 uM GlcN6P for this entry: C10G G13U A15C
Solution: < 1e-05 s⁻¹

Exercise: State the recorded self-cleavage kobs at 640 uM GlcN6P for this entry: A14U U47G C68G
Solution: 0.000125 s⁻¹

Exercise: State the recorded self-cleavage kobs at 640 uM GlcN6P for this entry: G32C C34U A36U C61U
Solution: < 1e-05 s⁻¹

Exercise: State the recorded self-cleavage kobs at 640 uM GlcN6P for this entry: C8G A14G C34G
Solution: < 1e-05 s⁻¹

Exercise: State the recorded self-cleavage kobs at 640 uM GlcN6P for this entry: A12C G41C U49A
Solution: < 1e-05 s⁻¹

Exercise: State the recorded self-cleavage kobs at 640 uM GlcN6P for this entry: A14U A39C A52C
Solution: < 1e-05 s⁻¹

Exercise: State the recorded self-cleavage kobs at 640 uM GlcN6P for this entry: A6U G35C
Solution: < 1e-05 s⁻¹

Exercise: State the recorded self-cleavage kobs at 640 uM GlcN6P for this entry: U30A G32A A39G
Solution: 0.000602 s⁻¹

Exercise: State the recorded self-cleavage kobs at 640 uM GlcN6P for this entry: A12U C34U
Solution: < 1e-05 s⁻¹

Exercise: State the recorded self-cleavage kobs at 640 uM GlcN6P for this entry: C16G G62C
Solution: < 1e-05 s⁻¹

Exercise: State the recorded self-cleavage kobs at 640 uM GlcN6P for this entry: G29A U65A C70U
Solution: 8.13e-05 s⁻¹

Exercise: State the recorded self-cleavage kobs at 640 uM GlcN6P for this entry: A36C G37C A52U A64G C70G
Solution: < 1e-05 s⁻¹

Exercise: State the recorded self-cleavage kobs at 640 uM GlcN6P for this entry: C11A A14C G35A C50G C71G
Solution: 0.000433 s⁻¹

Exercise: State the recorded self-cleavage kobs at 640 uM GlcN6P for this entry: C10A A39U U69G
Solution: < 1e-05 s⁻¹

Exercise: State the recorded self-cleavage kobs at 640 uM GlcN6P for this entry: U31G G35A C67A
Solution: < 1e-05 s⁻¹
